Consider the following compounds; for each one, report its PS [100 nM] (% stimulation).
System: T47D human breast carcinoma cells
method_notes: cells
Assay type: cell-based
particulars: agonistic mode, alkaline phosphatase induction (100% = 1 nM Dydrogesterone), compound 100 nM, T47D cells
Response body: numeric value in %, unit text excluded.

QUERY: PS [100 nM] (% stimulation) for CC(=O)c1cccc(NC(=O)OC2C[C@]3(C)[C@@H](C(C)=O)CC[C@H]3[C@@H]3C=CC4=CC(=O)CC[C@]4(C)[C@@H]23)c1 (stereo partly drawn) [compound 81] ?
RESULT: 1.0

QUERY: Same read-out for CC(=O)[C@H]1CC[C@H]2[C@@H]3C=CC4=CC(=O)CC[C@@]4(C)[C@@H]3C(OC(=O)Nc3ccc4c(c3)S(=O)(=O)C=C4)C[C@]12C (stereo partly drawn) [compound 98] ?
RESULT: 1.0

QUERY: Same read-out for CC(=O)Nc1cccc(NC(=O)OC2C[C@]3(C)[C@@H](C(C)=O)CC[C@H]3[C@@H]3C=CC4=CC(=O)CC[C@@]4(C)[C@H]23)c1 (stereo partly drawn) [compound 95] ?
RESULT: 1.0

QUERY: Same read-out for CC(=O)[C@H]1CC[C@H]2[C@@H]3C=CC4=CC(=O)CC[C@@]4(C)[C@@H]3C(OC(=O)Nc3ccc4cnn(C)c4c3)C[C@]12C (stereo partly drawn) [compound 99] ?
RESULT: 0.0

QUERY: Same read-out for CC(=O)[C@H]1CC[C@H]2[C@@H]3C=CC4=CC(=O)CC[C@@]4(C)[C@@H]3C(OC(=O)Nc3ccc4cc[nH]c4c3)C[C@]12C (stereo partly drawn) [compound 88] ?
RESULT: 0.0

QUERY: Same read-out for CC(=O)Nc1ccc(NC(=O)OC2C[C@]3(C)[C@@H](C(C)=O)CC[C@H]3[C@@H]3C=CC4=CC(=O)CC[C@@]4(C)[C@H]23)cc1 (stereo partly drawn) [compound 82] ?
RESULT: 0.0
